test system: HEK293FT dCK*-only; experiment: relative growth in counter assay (no AraC = 100%, AraC + DMSO = 0%); higher = more growth rescue independent of IKZF1; conditions: compound concentration: 5 uM; AraC concentration: 0.3 uM; overnight pretreatment + 4 days AraC
Structures can show the parent of a compound that is named as a salt.
endpoint_name: relative growth in counter assay (%)
The reply should contain only the number, in %.

If you can, please state the reported relative growth in counter assay value of O=C1c2c(O)ccc(O)c2C(=O)c2c(NCCNCCO)ccc(NCCNCCO)c21 .
-35.5

Which relative growth in counter assay is listed for CN(C)c1ccc2nc3ccc(N(C)C)cc3[s+]c2c1 ?
-29.4

I have this compound here, CSc1nc2cc(Cl)c(Oc3cccc(Cl)c3Cl)cc2[nH]1 , and I need its recorded relative growth in counter assay.
2.75

Looking for the measured relative growth in counter assay of CC[C@@]1(O)C(=O)OCc2c1cc1n(c2=O)Cc2cc3c(CN(C)C)c(O)ccc3nc2-1 [Topotecan (Hydrochloride)] , can you help?
-36.8

What does the record list as relative growth in counter assay for C=C1/C(=C\C=C2/CCC[C@]3(C)[C@@H]([C@H](C)CCCC(C)(C)O)CC[C@@H]23)C[C@@H](O)C[C@@H]1O [Calcitriol (Rocaltrol)] ?
31.2

Recorded relative growth in counter assay for Nc1ncc(Cc2ccc(Br)cc2)s1 , please?
-1.27

Quick one: relative growth in counter assay for COc1cccc2c1C(=O)c1c(O)c3c(c(O)c1C2=O)C[C@@](O)(/C(CO)=N/NC(=O)CCCCCN1C(=O)C=CC1=O)C[C@@H]3O[C@H]1C[C@H](N)[C@H](O)[C@H](C)O1 [Aldoxorubicin] ?
-35.5

# input compound: Clc1ccccc1C(c1ccccc1)(c1ccccc1)n1ccnc1 [Clotrimazole] ; wanted: its relative growth in counter assay
11.9

###

test system: HEK293FT dCK*-IKZF1; test: relative growth recovery (pomalidomide 10 uM = 100%, DMSO = 0%); higher = more growth rescue (IKZF1 fusion degradation); conditions: compound concentration: 5 uM; AraC concentration: 0.3 uM; overnight pretreatment + 4 days AraC
Structures can show the parent of a compound that is named as a salt.
Some compounds, each annotated with its measured relative growth recovery.
The reply should be a number in %, with the unit left off.

Worked cases, relative growth recovery given:
>>> measured("CCCCCCCC[N+](C)(C)Cc1ccccc1 [benzyldimethyloctylammonium]")
5.02
>>> measured("CC1CC(OC(=O)C(O)c2ccccc2)CC(C)(C)C1 (stereo not drawn)")
-2.85
>>> measured("Oc1c(Cl)cc(Cl)cc1Sc1cc(Cl)cc(Cl)c1O")
-1.73
>>> measured("C=C1C(=O)O[C@@H]2C=C(C)CCC=C(C)CC[C@@H]12 [costunolide]")
-0.955
>>> measured("CC(C)n1nc(-c2ccc3oc(N)nc3c2)c2c(N)ncnc21")
-12.4
>>> measured("O=C(NC(NC(=S)Nc1ccc(F)c([N+](=O)[O-])c1)C(Cl)(Cl)Cl)C(c1ccccc1)c1ccccc1 (stereo not drawn)")
-10.6
>>> measured("CN[C@H]1CC[C@@H](c2ccc(Cl)c(Cl)c2)c2ccccc21")
-1.94
>>> measured("O=C(O)c1cc([N+](=O)[O-])ccc1NCCCc1ccccc1")
-1.86

Recorded relative growth recovery of CCC(=O)O[C@@H]1CC(=O)O[C@H](C)C/C=C/C=C/[C@H](O)[C@H](C)C[C@H](CC=O)[C@H](O[C@@H]2O[C@H](C)[C@@H](O[C@H]3C[C@@](C)(O)[C@@H](OC(=O)CC)[C@H](C)O3)[C@H](N(C)C)[C@H]2O)[C@H]1OC [Midecamycin] , please.
-1.26

# get_value(readout='relative growth recovery', item= CN(C)CCCN1c2ccccc2Sc2ccc(Cl)cc21 [Chlorpromazine HCl] )
-2.69

# query: relative growth recovery of entry CSCC1CN(/N=C/c2ccc([N+](=O)[O-])o2)C(=O)O1 (stereo not drawn) [Nifuratel]
-1.79

Give its relative growth recovery value. Item: O=C1[C@H]2CCCC[C@H]2C(=O)N1CCCCN1CCN(c2nsc3ccccc23)CC1 [Perospirone]
13.7

###

system: HEK293FT dCK*-IKZF1; assay: relative growth recovery (pomalidomide 10 uM = 100%, DMSO = 0%); higher = more growth rescue (IKZF1 fusion degradation); conditions: compound concentration: 5 uM; AraC concentration: 0.3 uM; overnight pretreatment + 4 days AraC
Counter-ions that a name gives are not always drawn.
Entries and their relative growth recovery
# value in %; strip the unit string

>>> measured("Nc1ncn([C@@H]2O[C@H](CO)[C@@H](O)[C@H]2O)c(=O)n1")
-5.21

Item under review: CN(C)C(=O)C(CCN1CCC(O)(c2ccc(Cl)cc2)CC1)(c1ccccc1)c1ccccc1 [Loperamide HCl] . Reported relative growth recovery?
-1.04

Entry under review: CO[C@H]1O[C@@H]2O[C@@]3(C)CC[C@H]4[C@H](C)CC[C@@H]([C@H]1C)[C@@]24OO3 . Reported relative growth recovery?
-5.75

###

Form field: inhibition of IKZF1 HTRF signal (one value per entry).
target: IKZF1 (dCK*-IKZF1 fusion in HEK293FT) (UniProt Q13422); test: inhibition of IKZF1 HTRF signal (DMSO = 0%, pomalidomide 10 uM = 100%); higher = lower IKZF1 protein level; details: compound concentration: 5 uM, overnight (~20 h)
Sequence (Q13422 whole entry, looked up, the tested form may be a part): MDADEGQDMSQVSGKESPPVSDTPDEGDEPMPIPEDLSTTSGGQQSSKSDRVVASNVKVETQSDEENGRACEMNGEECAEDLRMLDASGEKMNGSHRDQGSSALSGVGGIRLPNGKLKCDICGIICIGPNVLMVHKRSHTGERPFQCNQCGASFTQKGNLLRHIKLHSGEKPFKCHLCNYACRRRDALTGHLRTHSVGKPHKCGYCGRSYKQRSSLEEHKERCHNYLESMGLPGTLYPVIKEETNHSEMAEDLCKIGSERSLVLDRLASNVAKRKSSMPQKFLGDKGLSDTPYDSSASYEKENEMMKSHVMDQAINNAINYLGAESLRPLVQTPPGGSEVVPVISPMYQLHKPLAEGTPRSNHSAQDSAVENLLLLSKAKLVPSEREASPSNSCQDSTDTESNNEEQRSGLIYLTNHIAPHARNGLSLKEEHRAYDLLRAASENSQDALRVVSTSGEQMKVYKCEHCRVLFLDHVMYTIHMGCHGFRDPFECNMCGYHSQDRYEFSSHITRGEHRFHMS
Lab book: enter the figure in %, no units written.

>>> measured("CCN(CCCCCOCC(=O)N[C@H](C(=O)N1C[C@H](O)C[C@H]1C(=O)N[C@@H](C)c1ccc(-c2scnc2C)cc1)C(C)(C)C)CCOc1ccc(C(=O)c2c(-c3ccc(O)cc3)sc3cc(O)ccc23)cc1")
3.72

Which value of inhibition of IKZF1 HTRF signal has been reported for Cc1c(S(=O)(=O)O)oc2c1C(=O)C(=O)c1c-2ccc2c1CCCC2(C)C [sodium-tanshinone-ii-a-sulfonate] in the records?
20.9

Form field: reported inhibition of IKZF1 HTRF signal of CCN(CC)CCCC(C)Nc1c2ccc(Cl)cc2nc2ccc(OC)cc12 (configuration not stated)
57.3

# lookup: inhibition of IKZF1 HTRF signal of Cc1ccccc1N=Nc1ccc(N=Nc2c(O)ccc3ccccc23)c(C)c1
13.9

inhibition of IKZF1 HTRF signal lookup needed for CN(C)CCCN1c2ccccc2Sc2ccc(Cl)cc21 , thanks.
-47.9

Quick check: inhibition of IKZF1 HTRF signal of O=C(Nc1cccc(Cl)c1)Nc1ncc(CCNc2ncnc3ccsc23)s1 [SNS-314 methanesulfonate] ?
-27

Reported inhibition of IKZF1 HTRF signal for C[C@H]1O[C@@H](O[C@H]2[C@@H](O)C[C@H](O[C@H]3[C@@H](O)C[C@H](O[C@H]4CC[C@]5(C)C6C[C@@H](O)[C@]7(C)[C@@H](C8=CC(=O)OC8)CC[C@]7(O)C6CC[C@@H]5C4)O[C@@H]3C)O[C@@H]2C)C[C@H](O)[C@@H]1O (some centres not stated) : what is it?
68.6

###

system: HEK293FT dCK*-only; experiment: relative growth in counter assay (no AraC = 100%, AraC + DMSO = 0%); higher = more growth rescue independent of IKZF1; conditions: compound concentration: 5 uM; AraC concentration: 0.3 uM; overnight pretreatment + 4 days AraC
endpoint_name: relative growth in counter assay (%)
State just the number; it will be interpreted in %.

>>> measured("O=c1[nH]c(=O)n([C@H]2C[C@H](O)[C@@H](CO)O2)cc1F")
-31.1

Here is the next item to consider.
Given the molecule Nc1ccc2cc3ccc(N)cc3nc2c1 , what is its reported relative growth in counter assay?
-35.1

###

tested on: HEK293FT dCK*-only; test: relative growth in counter assay (no AraC = 100%, AraC + DMSO = 0%); higher = more growth rescue independent of IKZF1; conditions: compound concentration: 5 uM; AraC concentration: 0.3 uM; overnight pretreatment + 4 days AraC
Where a name gives a salt, the structure may show the parent alone.
endpoint_name: relative growth in counter assay (%)
Your answer is read as %, so omit the unit and give the number.

Solved entries (count: 3):
>>> measured("CC[C@@]1(O)C(=O)OCc2c1cc1n(c2=O)Cc2cc3c(CN(C)C)c(O)ccc3nc2-1 [Topotecan HCl]")
-34.6
>>> measured("O=C(Nc1ccc2[nH]ccc2c1)c1ccccc1")
-3.62
>>> measured("O=C(Nc1ccc(S(=O)(=O)C(F)(F)F)cc1)C1=CCN(c2ncccc2C(F)(F)F)CC1")
62.2

Fill in the recorded relative growth in counter assay for this molecule, with HEK293FT dCK*-only as test system: CC(C)(C)CC(C)(C)c1ccc(OCCOCC[N+](C)(C)Cc2ccccc2)cc1
-7.09

What measured relative growth in counter assay is associated with O=c1oc(-c2ccc(C(F)(F)F)cc2)nn1Cc1cc(Cl)ccc1O on HEK293FT dCK*-only?
-6.2

// lookup relative growth in counter assay | system=HEK293FT dCK*-only | key= COC(=O)Nc1nc2cc(C(=O)c3cccs3)ccc2[nH]1
-33

Any idea what relative growth in counter assay came out for CSc1ccc2c(c1)C(N1CCN(C)CC1)Cc1ccccc1S2 (stereo not given) on HEK293FT dCK*-only?
-1.22
